assay: inhibitors of Sendai virus-induced IRF3 signaling, primary screen, TLR/RLR signaling modifier project, cell-based, Sendai virus stimulus, luciferase, 10K MLSCN set (AID 602276); details: HEK293 RL24 IRF3 luciferase reporter, at 10 µM, stronger effect = higher value;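 further: firefly luciferase from ISG56 promoter only with Renilla not read in this screen; 0% = Sendai virus plus DMSO and 100% = medium plus DMSO without virus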
Measured attribute: inhibition (%)

- Molecule: "Cc1ccccc1Cn1cc(/C=N/n2cnnc2)c2ccccc21"
  Measured attribute: "inhibition"
  Value measured: -7.96
- Molecule: "COc1ccc(Cl)cc1N1CC(c2nc3ccccc3[nH]2)CC1=O (stereo unspecified)"
  Measured attribute: "inhibition"
  Value measured: 16.2
- Molecule: "Cn1c(=O)c2c(nc(NCCCO)n2C/C=C/c2ccccc2)n(C)c1=O"
  Measured attribute: "inhibition"
  Value measured: 22.3
- Molecule: "Cc1ccc2cc(CN(Cc3ccc4c(c3)OCO4)Cc3nnnn3Cc3ccco3)c(=O)[nH]c2c1C"
  Measured attribute: "inhibition"
  Value measured: 39.3
- Molecule: "COC(=O)c1ccc(NC2(C#N)C(=O)Nc3ccccc32)cc1 (stereo unspecified)"
  Measured attribute: "inhibition"
  Value measured: 19
- Molecule: "O=C(CSc1nccn1-c1cccc(Cl)c1)NC1CCCC1"
  Measured attribute: "inhibition"
  Value measured: 14.4

----------
molecular target: Dual specificity protein phosphatase 6 (Homo sapiens) (UniProt Q16828); assay: DUSP6 inhibitors restoring Erk phosphorylation by chemical complementation, primary imaging in DUSP6-transfected HeLa (AID 609); conditions: HeLa MKP-3 transfected, phospho-Erk imaging KS statistic; at 10 µM; stronger effect = higher value; cells stimulated with TPA for 15 min;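 further: phospho-Erk level distribution per well compared with pooled transfected vehicle control wells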
Sequence (Q16828 whole entry, looked up): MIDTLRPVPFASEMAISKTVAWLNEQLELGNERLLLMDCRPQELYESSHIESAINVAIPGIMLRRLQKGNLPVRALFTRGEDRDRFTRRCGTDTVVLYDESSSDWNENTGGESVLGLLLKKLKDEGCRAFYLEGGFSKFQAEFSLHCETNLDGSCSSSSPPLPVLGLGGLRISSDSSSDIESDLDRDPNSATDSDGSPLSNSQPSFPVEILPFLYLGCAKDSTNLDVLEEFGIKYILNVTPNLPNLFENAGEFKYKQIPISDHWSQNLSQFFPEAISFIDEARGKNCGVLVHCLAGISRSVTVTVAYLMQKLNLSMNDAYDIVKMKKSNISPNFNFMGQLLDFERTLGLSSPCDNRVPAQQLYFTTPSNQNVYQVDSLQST

- Compound: "Cc1ccc(C2/C(=C(\\O)c3ccc4c(c3)OCCO4)C(=O)C(=O)N2CCCN(C)C)o1 (stereo not drawn)"
  Endpoint unit: "%"
  inhibition: 14
- Compound: "Cc1cc(C)c(C#N)c(OCC(=O)c2ccccc2)n1"
  Endpoint unit: "%"
  inhibition: -3.95
- Compound: "CCOC(=O)c1[nH]c2ccc(F)cc2c1NC(=O)CCN1CCSCC1"
  Endpoint unit: "%"
  inhibition: 1.42
- Compound: "Cc1ccc(NC(=O)c2cc(N3CCOCC3)nc3ccccc23)cc1"
  Endpoint unit: "%"
  inhibition: -16.8
- Compound: "CCCCc1nc(N2CCOCC2)c(C#N)c2c1CCCC2"
  Endpoint unit: "%"
  inhibition: -15.1
- Compound: "CN(C)CCNC(=O)C12CC3(C)CC(C)(CC(C)(C3)C1)C2"
  Endpoint unit: "%"
  inhibition: -6.59
- Compound: "CCN(CC)CCCN1C(=O)C(=O)/C(=C(/O)c2ccccc2)C1c1cc(OC)ccc1OC (stereo not drawn)"
  Endpoint unit: "%"
  inhibition: 1.48
- Compound: "COc1ccccc1-c1nnc2n1N=C(c1ccc(O)c(O)c1)CS2"
  Endpoint unit: "%"
  inhibition: -6.48
- Compound: "CCOC(=O)C(C)Oc1ccc2c(C)cc(=O)oc2c1C(C)=O (stereo not drawn)"
  Endpoint unit: "%"
  inhibition: 1.98
- Compound: "Cn1c(=O)c2c(nc(N3CCC(C(N)=O)CC3)n2CCSc2nc3ccccc3s2)n(C)c1=O"
  Endpoint unit: "%"
  inhibition: 7.42
- Compound: "CN=C(c1ccco1)n1c(=S)nc(-c2ccco2)n(C)c1=S"
  Endpoint unit: "%"
  inhibition: -2.59
- Compound: "CCC(=O)Nc1nc2ccccc2n1CCN(C)C"
  Endpoint unit: "%"
  inhibition: -1.98
- Compound: "Cn1c(N)c(C#N)c(C#N)c1-c1ccccc1"
  Endpoint unit: "%"
  inhibition: -2.59
- Compound: "CCCC(=O)N1CCc2[nH]c3ccccc3c2C1"
  Endpoint unit: "%"
  inhibition: -5.62
- Compound: "CCCCOc1ccc(C(=O)N2CCCC2C(=O)O)cc1 (stereo not drawn)"
  Endpoint unit: "%"
  inhibition: -13.3
- Compound: "COc1cccc(OC)c1C(=O)Nc1nc2ccc(S(C)(=O)=O)cc2s1"
  Endpoint unit: "%"
  inhibition: 6.04
- Compound: "COc1cc(C2C(C(C)=O)=C(O)C(=O)N2c2ccc(Br)cn2)ccc1O (stereo not drawn)"
  Endpoint unit: "%"
  inhibition: -2.59
- Compound: "COc1ccccc1C1/C(=C(/O)c2ccc(OC(C)C)cc2)C(=O)C(=O)N1c1cc(C)on1 (stereo not drawn)"
  Endpoint unit: "%"
  inhibition: 9.37
- Compound: "COc1ccc(-c2nc3n(n2)C(=O)CC(c2ccco2)S3)cc1 (stereo not drawn)"
  Endpoint unit: "%"
  inhibition: -11.5
- Compound: "CC(O)CNc1nc2c(c(=O)n(C)c(=O)n2C)n1Cc1cccc(C(F)(F)F)c1 (stereo not drawn)"
  Endpoint unit: "%"
  inhibition: 11.9
- Compound: "C=CCn1c(=N)c(C(=O)OCC)cc2c(=O)n3cccc(C)c3nc21"
  Endpoint unit: "%"
  inhibition: -9.66
- Compound: "COc1cc2nc(-c3ccccc3)nc(N3CCCC3)c2cc1OC"
  Endpoint unit: "%"
  inhibition: 1.42
- Compound: "Cc1cc(=O)oc2c(CN3CCCCC3)c(O)c(Cl)cc12"
  Endpoint unit: "%"
  inhibition: 7.83
